Biological target: Gag-Pol polyprotein (Human immunodeficiency virus type 1 group M subtype B (isolate HXB2)) (UniProt P04585)
Assay: RNase H inhibition, HIV 1 Gag Pol polyprotein, FRET biochemical assay, screening (AID 372)
Settings: HIV-1 RT RNase H, FRET RNA/DNA substrate fluorescence; at 10 µM
In all, about 100,000 compounds went through this assay and about 770 (0.77%) were called active. Cut-off read from the data, not from the text of the source: active = inhibition above about 50%; inactive = the rest. This excerpt belongs to a sample that is enriched for actives.
Could you please pick one outcome from this set? active, inactive

Check out these entries, answers already filled in.
Q: State the result this test recorded for CS(=O)(=O)N(CC(O)Cn1c2ccccc2c2ccccc21)c1ccc(Br)cc1 (configuration not stated) .
Ans: inactive

Q: Same read-out for `Cc1ccc(-c2nc(N/N=C/c3ccccc3O)c3ccccc3n2)cc1` ?
Ans: inactive

Q: Same read-out for `O=C(c1cc(-c2ccccc2)nc2ccccc12)N1CCc2ccccc2C1` ?
Ans: inactive

Q: Same read-out for CCN(CC)C(=O)C1CN(S(=O)(=O)c2ccccc2)CCN1S(=O)(=O)c1ccccc1 (configuration not stated) ?
Ans: active

Further cases:
Q: State the result this test recorded for `Brc1ccc(-c2nnnn2-c2ccccc2)cc1` .
Ans: inactive

Q: Same read-out for `COC(=O)c1cc(NC(=S)NC(=O)c2ccccc2)cc(C(=O)OC)c1` ?
Ans: inactive

Q: Same read-out for COC(=O)C1CN(S(=O)(=O)c2ccccc2)CCN1S(=O)(=O)c1ccccc1 (configuration not stated) ?
Ans: inactive

Q: Same read-out for `CCSc1nnc(NC(=O)COc2ccc(Cl)cc2Cl)s1` ?
Ans: inactive

Q: Same read-out for `CC(C)(C)C(=O)CC(=O)c1ccccc1` ?
Ans: inactive

Q: Same read-out for N#CC1=C(N)Oc2c(ccc3ccccc23)C1c1ccccc1Cl (configuration not stated) ?
Ans: inactive

Q: Same read-out for `Cc1cccc(C)c1NC(=S)NC(=O)c1ccccc1` ?
Ans: inactive

Q: Same read-out for `COC(=O)c1ccccc1NS(=O)(=O)c1ccc(NC(C)=O)cc1` ?
Ans: inactive

----------
Molecular target: Gag-Pol polyprotein (Human immunodeficiency virus type 1 group M subtype B (isolate HXB2)) (UniProt P04585)
Assay: RNase H inhibition, HIV 1 Gag Pol polyprotein, FRET biochemical assay, screening (AID 372)
Conditions: HIV-1 RT RNase H, FRET RNA/DNA substrate fluorescence; at 10 µM
Hit rate of the full screen: of about 100,000 compounds, about 770 (0.77%) were called active. Cut-off read from the data, not from the text of the source: active = inhibition above about 50%; inactive = the rest. The full list was thinned out, with actives kept by preference.
Could you please pick one outcome from this set? Yes for active, No for inactive

Check out these entries, answers already filled in.
Q: State the result this test recorded for `Cc1cccc(-n2sc3c(c2=S)-c2ccccc2NC3(C)C)c1C` .
Ans: No

Q: Same read-out for `Cc1ccc(/C=N/NC(=O)Cc2ccc(Cl)cc2)o1` ?
Ans: No

Q: Same read-out for CCCCOC(=O)C1=C(C)NC(=O)NC1c1ccc(Br)cc1 (stereo unspecified) ?
Ans: No

Q: Same read-out for COC(=O)C1=C(C)N(C)C(=O)NC1c1ccccc1I (stereo unspecified) ?
Ans: No

Q: Same read-out for `COc1cc(/C=C/c2nc3ccccc3c(=O)n2-c2cccc([N+](=O)[O-])c2)ccc1O` ?
Ans: Yes

Kindly review the next molecule as well.
Q: State the result this test recorded for `COc1ccc(CC(=O)N/N=C/c2ccc(I)o2)cc1` .
Ans: No

----------
Target: Gag-Pol polyprotein (Human immunodeficiency virus type 1 group M subtype B (isolate HXB2))
Assay: RNase H inhibition, HIV 1 Gag Pol polyprotein, FRET biochemical assay, screening (AID 372)
Details: HIV-1 RT RNase H, FRET RNA/DNA substrate fluorescence; at 10 µM; stronger effect = higher value
The campaign covered roughly 100,000 compounds. About 770 (0.77%) were called active. The full list was thinned out, with actives kept by preference.
Reported inhibition is given for each of the following compounds.
Quick note: give the figure in %, leave out the unit.

Q: Value wanted: inhibition (Gag-Pol polyprotein (Human immunodeficiency virus type 1 group M subtype B (isolate HXB2))) of entry `Cc1cc(C)c(C#N)c(SCC(=O)c2ccc(O)c(O)c2)n1`
Ans: 70

Q: Same read-out for `COc1cc(/C=C2\SC(N)=NC2=O)cc(Br)c1OC(=O)c1cccc2ccccc12` ?
Ans: 35

Q: Same read-out for `COc1cc(/C=C(\C#N)C(N)=S)ccc1OCc1ccccc1` ?
Ans: 10

Further cases:
Q: Value wanted: inhibition (Gag-Pol polyprotein (Human immunodeficiency virus type 1 group M subtype B (isolate HXB2))) of entry `COc1ccc([N+](=O)[O-])cc1NCc1ccccc1F`
Ans: 12

Q: Same read-out for `NC1=NC(=O)/C(=C/c2ccc(OC(=O)c3cccc4ccccc34)cc2)S1` ?
Ans: 20

----------
Biological target: Gag-Pol polyprotein (Human immunodeficiency virus type 1 group M subtype B (isolate HXB2)) (UniProt P04585)
Test: RNase H inhibition, HIV 1 Gag Pol polyprotein, FRET biochemical assay, screening (AID 372)
Details: HIV-1 RT RNase H, FRET RNA/DNA substrate fluorescence; at 10 µM; stronger effect = higher value
Screen size: about 100,000 compounds; about 770 (0.77%) were called active. This excerpt belongs to a sample that is enriched for actives.
Reported inhibition is given for each of the following molecules.
Quick note: give the figure in %, leave out the unit.

Record excerpt, results attached:
Q: What value of inhibition has been reported for the following molecule? `CC(=O)c1ccc(NC(=S)Nc2ccc3nccnc3c2)cc1`
Ans: 10

Q: Same read-out for `COc1ccc(CSCC(=O)N/N=C/c2c(Cl)cccc2Cl)cc1` ?
Ans: 60

Q: Same read-out for `Cc1cc(OCC(=O)N2CCN(c3ccccn3)CC2)ccc1Br` ?
Ans: 24

Q: Same read-out for `COc1ccc(CSCC(=O)N/N=C/c2ccccc2O)cc1` ?
Ans: 14

Q: Same read-out for `O=C1c2ccc(-c3nc4ccccc4c(=O)o3)cc2C(=O)N1c1cccc(I)c1` ?
Ans: 0

For the next question, use this molecule.
Q: What value of inhibition has been reported for the following molecule? `Cc1ccccc1N1C(=O)/C(=C/c2cccn2-c2ccc(Br)cc2)C(=O)NC1=S`
Ans: 20

----------
Target: Gag-Pol polyprotein (Human immunodeficiency virus type 1 group M subtype B (isolate HXB2)) (UniProt P04585)
Assay: RNase H inhibition, HIV 1 Gag Pol polyprotein, FRET biochemical assay, screening (AID 372)
Settings: HIV-1 RT RNase H, FRET RNA/DNA substrate fluorescence; at 10 µM; stronger effect = higher value
Screen size: about 100,000 compounds; about 770 (0.77%) were called active. For the sample, actives were picked, then their nearest neighbours and some compounds at random.
endpoint: inhibition (%)
Quick note: give the figure in %, leave out the unit.

Q: What value of inhibition has been reported for the following compound? CCOC(=O)C1=C(C)N=c2s/c(=C\c3ccc(O)c(OC)c3)c(=O)n2C1c1cc(OC)ccc1OC (stereo not drawn)
Ans: 0

Q: Same read-out for N#CC1=C(N)Oc2cc(N)ccc2C1c1cccc(Oc2ccccc2)c1 (stereo not drawn) ?
Ans: 5

Q: Same read-out for `CCc1cc(=O)oc2c(C)c(OCc3ccc(Cl)cc3)ccc12` ?
Ans: 5

Q: Same read-out for `COC(=O)c1sccc1NS(=O)(=O)c1cc(Cl)ccc1Cl` ?
Ans: 35

Q: Same read-out for `CC1(C)CC(=O)C=C(Nc2cc([N+](=O)[O-])ccc2N)C1` ?
Ans: 7

Further cases:
Q: What value of inhibition has been reported for the following compound? `C=CCN1C(=O)/C(=C/c2cc([N+](=O)[O-])ccc2OC)SC1=S`
Ans: 3

Q: Same read-out for `Cc1ccc(Cl)cc1NC(=O)/C(C#N)=C\c1ccc(I)o1` ?
Ans: 9

Q: Same read-out for `Cc1ccc(OCC(=O)Nc2nc(-c3ccccc3)cs2)c(C)c1` ?
Ans: 5

----------
Target: Gag-Pol polyprotein (Human immunodeficiency virus type 1 group M subtype B (isolate HXB2)) (UniProt P04585)
Test: RNase H inhibition, HIV 1 Gag Pol polyprotein, FRET biochemical assay, screening (AID 372)
Conditions: HIV-1 RT RNase H, FRET RNA/DNA substrate fluorescence; at 10 µM
Among all 100,000 compounds or so, about 770 (0.77%) were called active. No stated cut-off is given here; in the data, active means inhibition above about 50%; inactive means the rest. What follows is part of a selection rich in actives, with near analogues and random picks from the rest.
Could you please pick one outcome from this set? TRUE (active), FALSE (inactive)

Q: State the result this test recorded for `O=C(Nc1ccccc1)c1c(NC(=S)Nc2ccccc2)sc2c1CCCC2` .
Ans: FALSE

Q: Same read-out for `COc1ccc(OC)c(/C=C2\SC(N3CCCCCC3)=NC2=O)c1` ?
Ans: FALSE

Further cases:
Q: State the result this test recorded for `Cc1ccc(NC(=S)NC(=O)c2ccccc2F)cc1C` .
Ans: FALSE

Q: Same read-out for `O=C(O)c1c(-c2ccccc2)oc2ccc(OCc3ccccc3)cc12` ?
Ans: FALSE

Q: Same read-out for `O=C(COc1ccccc1)Nc1ccc2oc(-c3ccc(Cl)cc3)nc2c1` ?
Ans: FALSE
